system.name: WT AChE1 (Culex pipiens, UniProt Q86GC8)
Sequence (Q86GC8 37-702): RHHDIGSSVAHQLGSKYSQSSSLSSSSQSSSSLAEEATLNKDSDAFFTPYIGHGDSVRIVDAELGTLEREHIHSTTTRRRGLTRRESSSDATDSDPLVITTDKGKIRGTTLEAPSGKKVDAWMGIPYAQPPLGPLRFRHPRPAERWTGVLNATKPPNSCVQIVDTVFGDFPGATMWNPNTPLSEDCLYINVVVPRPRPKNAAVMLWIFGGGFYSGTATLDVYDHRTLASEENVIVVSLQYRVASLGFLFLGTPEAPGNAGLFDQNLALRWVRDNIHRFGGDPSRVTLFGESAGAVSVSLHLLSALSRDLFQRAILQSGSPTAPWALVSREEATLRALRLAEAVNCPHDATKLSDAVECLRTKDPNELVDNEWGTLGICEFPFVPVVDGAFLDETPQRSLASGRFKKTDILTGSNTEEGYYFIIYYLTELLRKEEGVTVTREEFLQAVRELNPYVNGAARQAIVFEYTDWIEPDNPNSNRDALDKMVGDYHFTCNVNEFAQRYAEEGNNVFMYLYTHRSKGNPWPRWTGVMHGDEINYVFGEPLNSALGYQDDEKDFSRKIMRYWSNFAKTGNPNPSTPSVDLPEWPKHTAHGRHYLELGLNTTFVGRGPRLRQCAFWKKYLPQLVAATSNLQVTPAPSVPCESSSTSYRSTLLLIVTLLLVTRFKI
assay.method.text: AChE assay (Ellman), dose-response on recombinant WT AChE1
Type: biochemical
Set-up: made in house; host or cells: Drosophila S2 cells
measurement.setup: recombinant wild-type C. pipiens AChE1; 15 min incubation; acetylthiocholine; read-out: IC50 WT
Readings of IC50 for the listed compounds
property.name: IC50 (µM)

1. O=C1NC(=O)N(c2ccccc2)C(=O)C1=Cc1ccco1 [PTF-54] | 1390
2. CN1C(=O)C(=Cc2ccc(N3CCCC3)o2)C(=O)N(C)C1=O [PTF-48] | 755
3. O=C1NC(=O)N(c2ccccc2)C(=O)C1=Cc1ccc(Br)o1 [PTF-55] | 17
